I'd be grateful if you could share measured IC50 for these entries.
Target: FAAH (Rattus norvegicus)
Construct: Preparation of Rat Brain Membranes Preparations (FAAH Enzyme Solution); from tissue; host or cells: rat cerebrum (brain membrane preparation)
Test: Determination of FAAH inhibitory activity in rat (rat brain membrane preparations, [3H]-anandamide hydrolysis)
Assay type: biochemical
Settings: rat brain membrane preparations; test substance 0.1 nM to 1 μM; read-out: FAAH Inhibition IC50

// input: 5 compounds below; output: IC50 for each
1. Cn1c(=O)n(C(=O)N2CCCC2)c2cnc(-c3cccc(Cl)c3)nc21
2. CN(C)C(=O)n1c(=O)n(C)c2cnc(CCc3ccccc3C(F)(F)F)nc21
3. CCN(C)C(=O)n1c(=O)n(C)c2nc(Cc3ccccc3)ncc21
4. COCCCc1ncc2c(n1)n(C)c(=O)n2C(=O)N1CC(c2cccc(C(F)(F)F)c2)C1
5. Cn1c(=O)n(C(=O)N2CCC2)c2cnc(COc3cccc(C(F)(F)F)c3)nc21

output:
1: 8 nM; 2: 10 nM; 3: 8 nM; 4: 7 nM; 5: 100 nM

Give IC50 for all compounds that follow.
1. Cn1c(=O)n(C(=O)N2CCC2)c2nc(COc3ccccc3F)ncc21
2. COCCCc1ncc2c(n1)n(C)c(=O)n2C(=O)N1CC(c2ccccc2)C1
3. Cn1c(=O)n(C(=O)N2CCCC2)c2nc(-c3ccc(F)cc3)ncc21
4. CN(C)C(=O)n1c(=O)n(C)c2cnc(CCc3cccc(OCC(F)F)c3)nc21

output:
1: 12 nM; 2: 14 nM; 3: 34 nM; 4: 52 nM

----------
Target: FAAH (Rattus norvegicus)
Construct: Preparation of Rat Brain Membranes Preparations (FAAH Enzyme Solution); from tissue; host or cells: rat cerebrum (brain membrane preparation)
Assay: Determination of FAAH inhibitory activity in rat (rat brain membrane preparations, [3H]-anandamide hydrolysis)
Assay type: biochemical
Details: rat brain membrane preparations; test substance 0.1 nM to 1 μM; read-out: FAAH Inhibition IC50
Mark each entry 1 (yes) if its IC50 sits below 30 nM, and 0 (no) for all others.

The following compounds have reported results that may help.
# COMPOUND, ASSAY SYSTEM, LABEL VALUE
data = [
    ("CN(C)C(=O)n1c(=O)n(C)c2cnc(CCc3cccc(OC(F)F)c3)nc21", "FAAH (Rattus norvegicus)", "1 (yes)"),
    ("COc1cccc(-c2ncc3c(n2)n(C)c(=O)n3C(=O)N(C)CCc2nc(-c3ccccc3)no2)c1", "FAAH (Rattus norvegicus)", "1 (yes)"),
    ("Cn1c(=O)n(C(=O)N2CCCC2)c2cnc(Cc3cc(F)cc(F)c3)nc21", "FAAH (Rattus norvegicus)", "0 (no)"),
    ("COCCN(C)C(=O)n1c(=O)n(C)c2nc(-c3ccccc3)ncc21", "FAAH (Rattus norvegicus)", "0 (no)"),
]

input: Below 30 nM on IC50? Entry Cn1c(=O)n(C(=O)N2CCCC2)c2nc(CCc3cccc(F)c3)ncc21
output: 1 (yes)

input: Item Cn1c(=O)n(C(=O)N2CCC2)c2nc(CCCOc3ccc(F)cc3)ncc21 : IC50 beneath 30 nM, strictly?
output: 1 (yes)

input: Consider the compound COCCCc1ncc2c(n1)n(C)c(=O)n2C(=O)N1CC(c2ccc(C(F)(F)F)cc2)C1 . Is its IC50 strictly less than 30 nM?
output: 1 (yes)

input: Consider CC(=O)c1cccc(-c2ncc3c(n2)n(C(=O)N2CCCC2)c(=O)n3C)c1 . Does its IC50 lie strictly below 30 nM?
output: 0 (no)

input: Hello, is IC50 of the following compound strictly smaller than 30 nM? CC(=O)c1ccc(N2CCN(C(=O)n3c(=O)n(C)c4nc(-c5ccccc5)ncc43)CC2)cc1
output: 1 (yes)

input: is_below(IC50, 30 nM) for CCCc1ncc2c(n1)n(C)c(=O)n2C(=O)N(C)CCc1ccc(Cl)cc1 ?
output: 1 (yes)

input: Consider the compound COc1cccc(-c2ncc3c(n2)n(C)c(=O)n3C(=O)N(C)CCOc2ccc(F)cc2)c1 . Is its IC50 strictly less than 30 nM?
output: 1 (yes)

input: Is IC50 strictly under 30 nM for the entry Cn1c(=O)n(C(=O)N2CCC2)c2nc(COc3ccc(F)cc3)ncc21 ?
output: 1 (yes)

input: Would you kindly verify if IC50 of Cn1c(=O)n(C(=O)N2CCCCC2)c2cnc(-c3ccccc3)nc21 is strictly less than 30 nM?
output: 1 (yes)

input: Strictly below 30 nM in IC50? Cn1c(=O)n(C(=O)N2CCCC2Cc2ccccc2)c2cnc(-c3ccccc3)nc21 (stereo not shown)
output: 0 (no)

input: Please state whether IC50 is below 30 nM for CN(C)C(=O)n1c(=O)n(C)c2cnc(-c3ccc(C(F)(F)F)cc3F)nc21
output: 1 (yes)

input: Hello, I'm reviewing records and need to know if IC50 of COc1cccc(-c2ncc3c(n2)n(C)c(=O)n3C(=O)N2CCN(c3ccccc3)CC2)c1 is below 30 nM. Could you check?
output: 1 (yes)

input: Hello, I'm reviewing records and need to know if IC50 of Cn1c(=O)n(C(=O)N2CCCC2)c2nc(/C=C/c3cccc(F)c3)ncc21 is below 30 nM. Could you check?
output: 1 (yes)

----------
Biological target: FAAH (Rattus norvegicus)
Construct: Preparation of Rat Brain Membranes Preparations (FAAH Enzyme Solution); from tissue; host or cells: rat cerebrum (brain membrane preparation)
Sequence (P97612 1-579): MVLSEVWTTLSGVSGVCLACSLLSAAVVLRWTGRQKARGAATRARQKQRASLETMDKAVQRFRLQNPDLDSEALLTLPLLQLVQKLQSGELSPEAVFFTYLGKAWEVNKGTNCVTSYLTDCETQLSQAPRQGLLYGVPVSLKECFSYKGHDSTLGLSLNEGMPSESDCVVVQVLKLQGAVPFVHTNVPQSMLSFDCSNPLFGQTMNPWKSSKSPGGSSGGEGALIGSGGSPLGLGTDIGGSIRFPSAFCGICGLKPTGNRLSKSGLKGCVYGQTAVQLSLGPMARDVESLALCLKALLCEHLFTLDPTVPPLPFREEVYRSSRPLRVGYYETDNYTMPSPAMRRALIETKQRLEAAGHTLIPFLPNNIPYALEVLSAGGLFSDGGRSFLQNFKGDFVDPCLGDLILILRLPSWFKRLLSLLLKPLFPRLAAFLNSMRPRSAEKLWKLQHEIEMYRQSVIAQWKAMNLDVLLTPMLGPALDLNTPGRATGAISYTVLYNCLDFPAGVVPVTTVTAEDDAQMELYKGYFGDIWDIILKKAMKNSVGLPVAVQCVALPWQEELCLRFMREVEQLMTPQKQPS
Assay: Determination of FAAH inhibitory activity in rat (rat brain membrane preparations, [3H]-anandamide hydrolysis)
Type: biochemical
Conditions: at 100 nM; rat brain membrane preparations; read-out: FAAH Inhibition Inhibition Rate at 100 nM
For each entry below, report its inhibition at 0.1 µM value.
Give bare numbers, in %.

Look over these answered cases.
# MOL, inhibition at 0.1 µM, %
data = [
    ("CCc1ncc2c(n1)n(C)c(=O)n2C(=O)N1CC(c2ccc(F)cc2)C1", 90),
    ("Cn1c(=O)n(C(=O)N2CC(c3cccc(F)c3)C2)c2cnc(C3CC3)nc21", 116),
    ("CCc1ncc2c(n1)n(C(=O)N1CC(c3ccccc3)C1)c(=O)n2C", 95),
    ("CCCc1ncc2c(n1)n(C)c(=O)n2C(=O)N1CC(c2ccccc2)C1", 128),
    ("CCn1c(=O)n(C(=O)N2CCC2)c2nc(CCc3ccccc3F)ncc21", 90),
    ("COCc1ncc2c(n1)n(C1CC1)c(=O)n2C(=O)N1CC(c2ccccc2)C1", 88),
]

Quick one: give me inhibition at 0.1 µM for each item below, same order please.
1. CN(C)C(=O)n1c(=O)n(C)c2cnc(CCOc3cccc(F)c3)nc21
2. COCc1ncc2c(n1)n(C1CC1)c(=O)n2C(=O)N1CC(c2ccc(F)cc2)C1

output:
1: 76; 2: 102

----------
Biological target: FAAH (Rattus norvegicus, UniProt P97612)
Construct: Preparation of Rat Brain Membranes Preparations (FAAH Enzyme Solution); from tissue; host or cells: rat cerebrum (brain membrane preparation)
Assay: Determination of FAAH inhibitory activity in rat (rat brain membrane preparations, [3H]-anandamide hydrolysis)
Format: biochemical
Conditions: rat brain membrane preparations; test substance 0.1 nM to 1 μM; read-out: FAAH Inhibition IC50
EXPERIMENTAL READOUT: IC50 (nM)
Answers are plain numbers, in nM.

Would you please look over these solved cases?
# MOL, RECORDED NUMBER
rows = [
    ("COc1cccc(-c2ncc3c(n2)n(C(=O)N2CCCC2)c(=O)n3C)c1", 44),
    ("CCN(C)C(=O)n1c(=O)n(C)c2nc(Cc3cccc(C)c3)ncc21", 10),
    ("CCCOCc1ncc2c(n1)n(C)c(=O)n2C(=O)N1CC(c2ccccc2)C1", 52),
    ("CN(C)C(=O)n1c(=O)n(C)c2cnc(-c3cccc(OC(F)(F)F)c3)nc21", 18),
    ("CN(C)c1ccc(-c2ncc3c(n2)n(C)c(=O)n3C(=O)N2CCCC2)cc1", 28),
]

Working through the 3 molecules below one at a time, give IC50 for each.
1. Cc1cccc(-c2ncc3c(n2)n(C(=O)N2CCCC2)c(=O)n3C)c1
2. COc1ccccc1Cc1ncc2c(n1)n(C(=O)N1CCCC1)c(=O)n2C
3. Cn1c(=O)n(C(=O)N2CCN(c3ccc(Cl)cc3)CC2)c2cnc(-c3ccccc3)nc21

output:
1. 31
2. 75
3. 7
